Target: Chymotrypsin (Bos taurus)
Construct: purchased Sigma-Aldrich
Assay: Chymotrypsin inhibition, fluorogenic substrate assay (Suc-Ala-Ala-Pro-Phe-AMC)
Format: biochemical
Settings: Chymotrypsin; inhibitor concentration 333.333 nM; 40 min pre-incubation
readoutName: Mean (RFU/s)
Just the number please, in RFU/s, no unit attached.

# query: Mean (RFU/s) of entry CC=C1NC(=O)[C@@H](NC(=O)[C@@H](NC(=O)[C@@H]2CCCN2C(=O)CCC)[C@@H](C)OC(=O)C2CCCN2C(=O)CCC)[C@@H](C)OC(=O)[C@H](C(C)C)NC(=O)[C@H](Cc2ccc(O)cc2)N(C)C(=O)[C@H](Cc2ccccc2)N2C(=O)[C@H](CC[C@H]2O)NC1=O (some centres unmarked) [Rivulariapeptolide 1155, rivulariapeptolide 1155]
0.494

Given the compound C/C=C1\NC(=O)[C@@H](NC(=O)[C@@H](NC(=O)[C@H](C)NC(=O)CCC)[C@@H](C)O)[C@@H](C)OC(=O)[C@H](C(C)C)NC(=O)[C@H](Cc2ccc(O)cc2)N(C)C(=O)[C@H](Cc2ccccc2)N2C(=O)[C@H](CC[C@H]2O)NC1=O [Molassamide, molassamide] , what is its reported Mean (RFU/s)?
3.784

###

Target: Proteinase K (Parengyodontium album, UniProt P06873)
Construct: purchased Roche
Sequence (P06873 106-384): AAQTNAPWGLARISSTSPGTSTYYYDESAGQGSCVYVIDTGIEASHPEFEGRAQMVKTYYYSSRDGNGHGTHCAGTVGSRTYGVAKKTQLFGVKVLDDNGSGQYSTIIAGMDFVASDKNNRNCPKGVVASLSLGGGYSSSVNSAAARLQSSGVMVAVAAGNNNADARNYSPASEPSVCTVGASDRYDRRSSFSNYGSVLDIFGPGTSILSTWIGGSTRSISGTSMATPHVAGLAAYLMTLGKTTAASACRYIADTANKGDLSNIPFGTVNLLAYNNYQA
Experiment: Proteinase K inhibition, fluorogenic substrate assay (Suc-Ala-Ala-Pro-Phe-AMC)
Assay type: biochemical, Tritirachium album
Conditions: Proteinase K; inhibitor concentration 37.037 nM; 40 min pre-incubation
So I've got a bunch of compounds here, and I need their Mean (RFU/s) values.
Please state the figure in RFU/s; there is no need to write the unit.

Requested field: Mean (RFU/s). Item: CC=C1NC(=O)[C@@H](NC(=O)[C@@H](NC(=O)[C@@H]2CCCN2C(=O)CCC)[C@@H](C)OC(=O)C2CCCN2C(=O)CCC)[C@@H](C)OC(=O)[C@H](C(C)C)NC(=O)[C@H](Cc2ccc(O)cc2)N(C)C(=O)[C@H](CC(C)C)N2C(=O)[C@H](CC[C@H]2O)NC1=O (stereo partly drawn) [Rivulariapeptolide 1121, rivulariapeptolide 1121]
4.069

Looking for the measured Mean (RFU/s) of CC=C1NC(=O)[C@@H](NC(=O)[C@@H](NC(=O)[C@@H]2CCCN2C(=O)CCC)[C@@H](C)O)[C@@H](C)OC(=O)[C@H](C(C)C)NC(=O)[C@H](Cc2ccc(O)cc2)N(C)C(=O)[C@H](Cc2ccccc2)N2C(=O)[C@H](CC[C@H]2O)NC1=O [Rivulariapeptolide 988, rivulariapeptolide 988] , can you help?
4.799

So what does the record say about Mean (RFU/s) for CCCC(=O)N1CCCC1C(=O)NC(C(=O)NC1C(=O)NC(CC(C)C)C(=O)NC2CCC(O)N(C2=O)C(Cc2ccccc2)C(=O)N(C)C(Cc2ccc(O)cc2)C(=O)NC(C(C)C)C(=O)OC1C)C(C)OC(=O)C1CCCN1C(=O)CCC (stereo not drawn) [Rivulariapeptolide 1185, rivulariapeptolide 1185] ?
4.195

###

Can you tell me Mean (RFU/s) for the items I'm about to list?
Target: Chymotrypsin (Bos taurus, UniProt P00766)
Construct: purchased Sigma-Aldrich
Assay: Chymotrypsin inhibition, fluorogenic substrate assay (Suc-Ala-Ala-Pro-Phe-AMC)
Assay type: biochemical
Conditions: Chymotrypsin; inhibitor concentration 1000 nM; 40 min pre-incubation
Report only the number, with the unit RFU/s understood.

Request - read-out Mean (RFU/s) | tested on Chymotrypsin (Bos taurus, UniProt P00766) | compound CC=C1NC(=O)[C@@H](NC(=O)[C@@H](NC(=O)[C@@H]2CCCN2C(=O)CCC)[C@@H](C)OC(=O)C2CCCN2C(=O)CCC)[C@@H](C)OC(=O)[C@H](C(C)C)NC(=O)[C@H](Cc2ccc(O)cc2)N(C)C(=O)[C@H](CC(C)C)N2C(=O)[C@H](CC[C@H]2O)NC1=O (stereo partly drawn) [Rivulariapeptolide 1121, rivulariapeptolide 1121]
0.1967

State its Mean (RFU/s) on Chymotrypsin (Bos taurus, UniProt P00766): C/C=C1\NC(=O)[C@@H](NC(=O)[C@@H](NC(=O)[C@H](C)NC(=O)CCC)[C@@H](C)O)[C@@H](C)OC(=O)[C@H](C(C)C)NC(=O)[C@H](Cc2ccc(O)c(Br)c2)N(C)C(=O)[C@H](Cc2ccccc2)N2C(=O)[C@H](CC[C@H]2O)NC1=O [Molassamide B, molassamide B]
0.1157

Form: Entry = CC=C1NC(=O)[C@@H](NC(=O)[C@@H](NC(=O)[C@@H]2CCCN2C(=O)CCC)[C@@H](C)O)[C@@H](C)OC(=O)[C@H](C(C)C)NC(=O)[C@H](Cc2ccc(O)cc2)N(C)C(=O)[C@H](Cc2ccccc2)N2C(=O)[C@H](CC[C@H]2O)NC1=O [Rivulariapeptolide 988, rivulariapeptolide 988] | System = Chymotrypsin (Bos taurus, UniProt P00766) | Mean (RFU/s) = ____
0.4203

Field: Mean (RFU/s) (Chymotrypsin (Bos taurus, UniProt P00766)). Entry: CC=C1NC(=O)[C@@H](NC(=O)[C@@H](NC(=O)[C@@H]2CCCN2C(=O)CCC)[C@@H](C)OC(=O)C2CCCN2C(=O)CCC)[C@@H](C)OC(=O)[C@H](C(C)C)NC(=O)[C@H](Cc2ccc(O)cc2)N(C)C(=O)[C@H](Cc2ccccc2)N2C(=O)[C@H](CC[C@H]2O)NC1=O (stereo partly drawn) [Rivulariapeptolide 1155, rivulariapeptolide 1155]
0.1737

I'm curious: which Mean (RFU/s) was measured for CCCC(=O)N1CCCC1C(=O)NC(C(=O)NC1C(=O)NC(CC(C)C)C(=O)NC2CCC(O)N(C2=O)C(Cc2ccccc2)C(=O)N(C)C(Cc2ccc(O)cc2)C(=O)NC(C(C)C)C(=O)OC1C)C(C)OC(=O)C1CCCN1C(=O)CCC (stereo not drawn) [Rivulariapeptolide 1185, rivulariapeptolide 1185] tested on Chymotrypsin (Bos taurus, UniProt P00766)?
0

API: value(readout=Mean (RFU/s), system=Chymotrypsin (Bos taurus, UniProt P00766)) for record C/C=C1\NC(=O)[C@@H](NC(=O)[C@@H](NC(=O)[C@H](C)NC(=O)CCC)[C@@H](C)O)[C@@H](C)OC(=O)[C@H](C(C)C)NC(=O)[C@H](Cc2ccc(O)cc2)N(C)C(=O)[C@H](Cc2ccccc2)N2C(=O)[C@H](CC[C@H]2O)NC1=O [Molassamide, molassamide]
2.129
